# credit: paper PMC5540273

# Tested on: RPS6KA5(Kin.Dom.1-N-terminal)
# MEASUREMENT CONTEXT: concentration: 1 μM, replicates: in singlicate; n = 1;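 further: KINOMEscan kinase panel screen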
Please note: %Inh exactly at 5% is no. Only values below 5% get yes.

Answered examples (3):
Lookup: %Inh under 5%? Item: O=C(O)C(F)(F)F.O=C(O)C(F)(F)F.O=c1[nH]ccc2nc(N[C@@H]3CCCNC3)nc(Nc3ccc(S(=O)(=O)N4CCOCC4)cc3)c12
Found: no

Lookup: %Inh under 5%? Item: COc1cccc(C(=O)Nc2cccc(Oc3ccc4nc(NC(=O)C5CC5)cn4n3)c2)c1
Found: yes

Lookup: %Inh under 5%? Item: NCCCC(NC(=O)c1cc(Br)c(-c2ccnc3[nH]ccc23)s1)c1ccccc1.O=C(O)C(F)(F)F.O=C(O)C(F)(F)F (centres unmarked)
Found: no

***
Lookup: %Inh under 5%? Item: O=C(Nc1n[nH]c2nc(-c3ccc(O)cc3)ccc12)C1CC1
Found: yes

Lookup: %Inh under 5%? Item: C[C@@H](Oc1cc(-n2cnc3cc(-c4ccnc(NCCS(C)(=O)=O)c4)ccc32)sc1C(N)=O)c1ccccc1Cl
Found: yes

Lookup: %Inh under 5%? Item: O=C(NC1CCN(c2ccnc(Nc3ccc(F)cc3)n2)C1)c1cc2ccccc2s1 (centres unmarked)
Found: no

Lookup: %Inh under 5%? Item: Cc1cccc(NC(=O)Nc2ccc(Oc3ncnc4ccn(C)c34)cc2)c1
Found: yes

---

Could you please report measured %Inh for the items listed next?
# Test system: PIM1
# MEASUREMENT CONTEXT: concentration: 1 μM, replicates: in singlicate; n = 1
Give bare numbers, in %.

Please look at the items below and tell me %Inh for each one, in order.
1. Cl.c1ccc(-c2ccc3c(Nc4ccc5[nH]ccc5c4)ccnc3c2)nc1
2. Nc1ncnc2c1nc(-c1ccccc1)n2-c1ccccc1
3. CCn1c(-c2nonc2N)nc2c(C#CC(C)(C)O)ncc(OCCCCN)c21.O=C(O)C(F)(F)F.O=C(O)C(F)(F)F

Found:
0
39
69

Please look at the items below and tell me %Inh for each one, in order.
1. COc1cc(Nc2nccc(N3CCC(NC(=O)c4cc5ccccc5s4)C3)n2)cc(OC)c1OC (stereo not drawn)
2. Cc1ccc(C(=O)N2CC[C@@H](O)C2)cc1-n1c(C)cc(OCc2ccc(F)cc2F)c(Br)c1=O
3. COc1cc2c(cc1OCCN1CCNCC1)ncc1c3ccc(C#N)cc3[nH]c21
4. NCCCC(NC(=O)c1cc(Br)c(-c2ccnc3[nH]ccc23)s1)c1ccccc1.O=C(O)C(F)(F)F.O=C(O)C(F)(F)F (stereo not drawn)
5. O=C(Nc1cccc(Oc2ccc3nc(NC(=O)C4CC4)cn3n2)c1)c1ccccc1C(F)(F)F
6. O=C(Nc1cccc(-c2nn3ncccc3c2-c2ccnc(Nc3ccccc3)n2)c1)c1c(F)cccc1F
7. CCc1ccc(-c2ccc3c(c2)-c2c(cnn2C)S(=O)(=O)N3C)cc1

Found:
16
0
10
59
0
16
1

Please look at the items below and tell me %Inh for each one, in order.
1. Cc1cccc(Nc2nc(N[C@H]3CCNC3)ncc2C(N)=O)c1.Cl
2. COc1cccc(C(=O)Nc2cccc(Oc3ccc4nc(NC(=O)C5CC5)cn4n3)c2)c1
3. COC(=O)Nc1nc2ccc(Oc3ccc(NC(=O)Nc4cc(C(F)(F)F)ccc4F)cc3)cc2n1C.Cl
4. Oc1cc(Nc2ccnc3cc(I)ccc23)ccc1F
5. COc1ccc(-c2coc3ccc(-c4nnc(SCc5ccc(OC)c(C(F)(F)F)c5)o4)cc23)cc1
6. COc1ccc(Nc2nccc(N3CCC(NC(=O)Nc4cccc(OC)c4)C3)n2)cc1 (stereo not drawn)
7. Cl.NC(=O)c1cccc(Nc2nccc(Nc3ccc(Oc4c(Cl)cccc4Cl)c(Cl)c3)n2)c1

Found:
28
9
0
8
0
0
13

Lookup: # return %Inh of COC(=O)Nc1nc2cc(Oc3ccc(NC(=O)Nc4cc(C(F)(F)F)ccc4F)cn3)ccc2[nH]1.Cl.Cl (system: PIM1)
Found: 9
